The reader will find reported log10(IC50) values listed item by item below.
Target: Human immunodeficiency virus type 1 reverse transcriptase (Human immunodeficiency virus 1, UniProt Q72547)
Assay: Inhibition of HIV-1 Reverse transcriptase using poly-(rc)-oligo(dg) as the template primer.
ENDPOINT: log10(IC50) (log10 of the value in µM)

MOLECULAR STRING	READOUT NUMBER
COC(=O)c1cc(C(=CCCCC=O)c2cc(Cl)c(OC)c(C(=O)OC)c2)cc(Cl)c1OC	0.69
COC(=O)c1cc(C(=CCCCCN=[N+]=[N-])c2cc(Cl)c(OC)c(C(=O)OC)c2)cc(Cl)c1OC	0.11
CCC(=O)CCCC=C(c1cc(Cl)c(OC)c(C(=O)OC)c1)c1cc(Cl)c(OC)c(C(=O)OC)c1	0.00
COC(=O)c1cc(C(=CCC2OCCO2)c2cc(Cl)c(OC)c(C(=O)OC)c2)cc(Cl)c1OC	0.51
CCNC(=O)OCCCCC=C(c1cc(Cl)c(OC)c(C(=O)OC)c1)c1cc(Cl)c(OC)c(C(=O)OC)c1	0.51
CCCCCC=C(c1cc(F)c(OC)c(C(=O)OC)c1)c1cc(F)c(OC)c(C(=O)OC)c1	1.00
COC(=O)CCC=C(c1cc(Cl)c(OC)c(C(=O)OC)c1)c1cc(Cl)c(OC)c(C(=O)OC)c1	0.86
COC(=O)CCCCC=C(c1cc(Cl)c(OC)c(C(=O)OC)c1)c1cc(Cl)c(OC)c(C(=O)OC)c1	-0.33
